# Test system: A549, DU-145, KB, HCT-8 cancer cell lines
# EXPERIMENT_NOTES: Cytotoxicity screen, stated over the panel of four cancer cell lines
# Assay type: cell-based
# EXPERIMENTAL_CONTEXT: read-out: GI50 (all tested cancer cell lines)
Listed next: entries and their corresponding GI50.

- MOLECULE: "COc1ccc2c3c(c4cc(OC)c(OC)cc4c2c1)C[C@@H]1CCOCN1C3 [Compound 14, (R)-12-Oxa-cryptopleurine]"
  VALUE_MEASURED: "> 1 µM"
- MOLECULE: "COc1ccc2c3c(c4cc(OC)c(OC)cc4c2c1)C[C@H]1CCOCN1C3 [Compound 13, (S)-12-Oxa-cryptopleurine]"
  VALUE_MEASURED: "> 1 µM"
- MOLECULE: "COc1ccc2c3c(c4cc(OC)c(OC)cc4c2c1)C[C@H]1CCN(Cc2ccccc2)CN1C3 [Compound 10d]"
  VALUE_MEASURED: "> 20 µM"

Let's switch to this molecule now.
Task: Checklist item: GI50 tested on A549, DU-145, KB, HCT-8 cancer cell lines, entry COc1ccc2c3c(c4cc(OC)c(OC)cc4c2c1)C[C@H]1CCN(c2ccccc2)CN1C3 [Compound 10b] , value?
Result: > 20 µM

----------
# Test system: KB (nasopharyngeal)
# EXPERIMENT_NOTES: Cytotoxicity
# Assay type: cell-based
# EXPERIMENTAL_CONTEXT: KB cell line
ENDPOINT: GI50 KB (nM)
Output spec: scalar in nM, unitless text.

# example entries with known answers
- COMPOUND: "COc1ccc2c3c(c4cc(OC)c(OC)cc4c2c1)C[C@H]1CCCCCN1C3 [Compound 15]"
  GI50 KB (nM): 102
- COMPOUND: "COc1ccc2c3c(c4cc(OC)c(OC)cc4c2c1)C[C@H]1CCOCCN1C3 [Compound 16]"
  GI50 KB (nM): 68
- COMPOUND: "COc1ccc2c3c(c4cc(OC)c(OC)cc4c2c1)C[C@H]1CCCN1C3 [R-antofine, reference compound]"
  GI50 KB (nM): 36
- COMPOUND: "COc1ccc2c3c(c4cc(OC)c(OC)cc4c2c1)C[C@H]1COCCN1C3 [Compound 11, (S)-13-Oxa-cryptopleurine]"
  GI50 KB (nM): 37

Task: Checklist item: GI50 KB tested on KB (nasopharyngeal), entry COc1ccc2c3c(c4cc(OC)c(OC)cc4c2c1)C[C@H]1CCCCN1C3 [crypto-pleurine, R-cryptopleurine, reference compound] , value?
Result: 1.51
